Each record here notes measured Bliss excess.
# Test system: HT55 (Colorectal Carcinoma);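 also: after 72 h of two-drug dosing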
# procedure details: Bliss excess, mean over the matrix (fraction); higher = more synergy
Number only, no unit.

compound="CN(CCO)CC[C@H](CSc1ccccc1)Nc1ccc(S(=O)(=O)NC(=O)c2ccc(N3CCC([C@@H](O)c4ccccc4-c4ccc(Cl)cc4)CC3)cc2)cc1S(=O)(=O)C(F)(F)F [AZD4320] + CN(C)CCCOc1ccc(-c2ccc3ncc4c(c3c2)n(C2CCOCC2)c(=O)n4C)cn1 [AZD0156] (first compound max 1 µM, 7x7, partner max 1 µM)" measured_quantity="Bliss excess" reported_value=-0.0158

# evaluate next
IN: Param item = COc1cccc(OCCCN)c1-c1cc(Nc2cnc(C#N)cn2)n[nH]1 [Prexasertib] + CCc1c2c(nc3ccc(O)cc13)-c1cc3c(c(=O)n1C2)COC(=O)[C@]3(O)CC [SN-38] (first compound max 1 µM, 7x7, partner max 0.3 µM) ; retrieve measured Bliss excess.
OUT: 0.0552

###

Each record here notes measured combination Emax.
# Test system: SK-HEP-1 (Hepatocellular Carcinoma)
# procedure details: combination Emax (second highest fraction inhibited in the dose matrix, 72 h); higher = more inhibition; extreme values may be limits of the assay
Number only, no unit.

compound="COc1cccc(OCCCN)c1-c1cc(Nc2cnc(C#N)cn2)n[nH]1 [Prexasertib] + C=CCn1c(=O)c2cnc(Nc3ccc(N4CCN(C)CC4)cc3)nc2n1-c1cccc(C(C)(C)O)n1 [AZD1775] (first compound max 1 µM, partner max 1 µM)" reported_value=0.65

IN: Param item = Cc1c2c(nn1C)CSCc1cc(n(C)n1)CSc1cc(c3ccccc3c1)OCCCc1c(C(=O)O)n(C)c3c-2c(Cl)ccc13 [AZD5991] + C=CCn1c(=O)c2cnc(Nc3ccc(N4CCN(C)CC4)cc3)nc2n1-c1cccc(C(C)(C)O)n1 [AZD1775] (first compound max 1 µM, partner max 1 µM) ; retrieve measured combination Emax.
OUT: 0.35

IN: Param item = COc1cccc(OCCCN)c1-c1cc(Nc2cnc(C#N)cn2)n[nH]1 [Prexasertib] + C[C@@H]1COCCN1C2=NC(=NC(=C2)C3(CC3)[S@](=N)(=O)C)C4=C5C=CNC5=NC=C4 [AZD6738] (first compound max 1 µM, 7x7, partner max 10 µM) ; retrieve measured combination Emax.
OUT: 0.462

IN: Param item = Cc1c2c(nn1C)CSCc1cc(n(C)n1)CSc1cc(c3ccccc3c1)OCCCc1c(C(=O)O)n(C)c3c-2c(Cl)ccc13 [AZD5991] + C1CN(CCC1(C(=O)N[C@@H](CCO)C2=CC=C(C=C2)Cl)N)C3=NC=NC4=C3C=CN4 [Capivasertib] (first compound max 1 µM, 7x7, partner max 3 µM) ; retrieve measured combination Emax.
OUT: 0.334

IN: Param item = O=C(c1cc(Cc2n[nH]c(=O)c3ccccc23)ccc1F)N1CCN(C(=O)C2CC2)CC1 [Olaparib] + CN(CC[C@H](CSC1=CC=CC=C1)NC2=C(C=C(C=C2)S(=O)(=O)NC(=O)C3=CC=C(C=C3)N4CCC(CC4)[C@H](C5=CC=CC=C5C6=CC=C(C=C6)Cl)O)S(=O)(=O)C(F)(F)F)CCO [AZD4320] (first compound max 10 µM, 7x7, partner max 1 µM) ; retrieve measured combination Emax.
OUT: 0.911

IN: Param item = CS(=O)(=O)CCNCc1ccc(-c2ccc3ncnc(Nc4ccc(OCc5cccc(F)c5)c(Cl)c4)c3c2)o1 [Lapatinib] + NC1(c2ccc(-c3nc4ccn5c(=O)[nH]nc5c4cc3-c3ccccc3)cc2)CCC1 [MK-2206] (first compound max 10 µM, 7x7, partner max 10 µM) ; retrieve measured combination Emax.
OUT: 0.87

IN: Param item = CN(CCO)CC[C@H](CSc1ccccc1)Nc1ccc(S(=O)(=O)NC(=O)c2ccc(N3CCC([C@@H](O)c4ccccc4-c4ccc(Cl)cc4)CC3)cc2)cc1S(=O)(=O)C(F)(F)F [AZD4320] + Nc1ccn([C@@H]2O[C@H](CO)[C@@H](O)C2(F)F)c(=O)n1 [Gemcitabine] (first compound max 1 µM, 7x7, partner max 0.3 µM) ; retrieve measured combination Emax.
OUT: 0.936

Data origin: the supplement of paper PMC11061612
